- Assay target: T1, human PDGFRb.hFc (human)
- T1 construct: Soluble dimeric construct with human Fc; also called hPDGFRb.hFc
- Assay comment: SPR, mAb captured, 25 C
Result type: t1/2
Kindly report the value followed by its unit.

Read the entry H4H3098S (antibody, human IgG4, V domains shown, human IgG4 Fc (H4H prefix)) VH: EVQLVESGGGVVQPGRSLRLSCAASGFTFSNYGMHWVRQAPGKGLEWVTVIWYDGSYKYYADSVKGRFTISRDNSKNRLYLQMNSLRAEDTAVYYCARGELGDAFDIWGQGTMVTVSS VL: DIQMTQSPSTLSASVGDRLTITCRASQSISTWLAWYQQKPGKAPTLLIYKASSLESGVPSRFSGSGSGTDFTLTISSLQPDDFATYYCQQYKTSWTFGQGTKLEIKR and write its reported t1/2.
186 min
